Test system: DCAMKL1;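 also: KINOMEscan kinase panel screen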
Construct: gene DCLK1
Details: concentration: 1 μM,replicates: in singlicate; n = 1
# note: boundary value 20% maps to NOT MET; %Inh below it maps to MET

In [3]: df
Out[3]:
                               smiles_entry  assigned_category
0  COc1ccc(C[C@@H](CN)NC(=O)c2cc(Br)c(-c3ccnc4[nH]ccc34)s2)cc1.Cl.Cl            NOT MET
1  CCN(CC)CCOc1ccc(Nc2ncc3cc(-c4c(Cl)cccc4Cl)c(=O)n(C)c3n2)cc1            NOT MET
2   CC(C)Nc1cc(-c2ccc3c(N)n[nH]c3c2)nc(N)n1                MET
3  O=C(NCCNc1ccnc(NCc2ccc(F)cc2)n1)c1cc2ccccc2s1                MET
4  Nc1nc(Nc2ccccc2)cc(-c2ccc3c(N)n[nH]c3c2)n1                MET
5  Cc1cc(C(=O)Nc2ccc(Oc3ccc4nc(NC(=O)C5CC5)cn4n3)cc2)nn1-c1ccccc1                MET
6  C[C@H]1Oc2cc(cnc2N)-c2c(nn(C)c2C#N)CN(C)C(=O)c2ccc(F)cc21            NOT MET
7  Cl.Cl.NC[C@H](CC1CCCCC1)NC(=O)c1cc(Br)c(-c2ccnc3[nH]ccc23)s1                MET
